Each item that follows carries a reported Ratio.
System: Cysteinyl leukotriene receptor (Cavia porcellus)
Experiment: Ability to inhibit the contraction induced by 8 nM LTE4 on isolated guinea pig tracheal strips at 10 uM dose; % antagonism / % basal tension
Conditions: Trachea
// print number alone

Examples with answers:
CCCCCCCc1ccc(C/C=C\[C@@H](SCc2ccc(C(=O)O)cc2F)[C@@H](O)CCCC(=O)O)cc1	63
CCCCCCCc1ccc(C/C=C\[C@@H](Sc2ccc(NC(C)=O)cc2)[C@@H](O)CCCC(=O)O)cc1	4

Supply Ratio value. Item: `CCCCCCCc1ccc(C/C=C\[C@@H](SCc2ccc(C(=O)O)cc2N)[C@@H](O)CCCC(=O)O)cc1`
66

Supply Ratio value. Item: `CCCCCCCc1cccc(C/C=C\[C@@H](SCc2ccc(C(=O)O)cc2OC)[C@@H](O)CCCC(=O)O)c1`
52

Supply Ratio value. Item: `CCCCCCCc1ccc(C/C=C\[C@@H](SCc2ccc(C(=O)O)cc2[N+](=O)[O-])[C@@H](O)CCCC(=O)O)cc1`
24

---

System: Cysteinyl leukotriene receptor (Cavia porcellus)
Test: Ability to inhibit the contraction induced by 8 nM LTE4 on isolated guinea pig tracheal strips at 10 uM dose; % antagonism / % basal tension
Details: Trachea
Please enter class 1 where Ratio is greater than or equal to 40, and class 0 where it is lower.

CCCCCc1ccc(C/C=C\[C@@H](SCc2ccc(C(=O)O)cc2OC)[C@@H](O)CCCC(=O)O)cc1	class 1
CCCCCCCc1ccc(C/C=C\[C@@H](SCc2ccc(/C=C/C(=O)O)cc2)[C@@H](O)CCCC(=O)O)cc1	class 0
CCCCCCCc1ccc(C/C=C\[C@@H](SCc2ccc(N)c(C(=O)O)c2)[C@@H](O)CCCC(=O)O)cc1	class 1

Shifting focus to the compound that follows.
Test whether the compound `CCCCCCCc1ccc(C/C=C\[C@@H](SCc2ccc(C(=O)O)cc2)[C@@H](O)CCCC(=O)O)cc1` records Ratio of 40 or higher.
class 0
